- Tested on: Neofusicoccum ribis
- Assay Notes: Inhibition of Neofusicoccum ribis mycelium growth measured at 28 degC after 4 days
- Assay type: functional
- Condition: 96 h
Quantity Measured: MIC (mM)
All answers are understood in mM, so give the number only.

Compound: COc1cccc(OC)c1C(=O)O
Endpoint Unit: mM
MIC: 5

Now look at this entry.
(Q) Item COc1ccccc1O with Neofusicoccum ribis - MIC?
(A) 5

---

- System: Neofusicoccum ribis
- Assay Notes: Decrease in Neofusicoccum ribis mycelium biomass production at 25 mM measured at 28 degC after 4 days by gravimetric analysis
- Type: functional
- Condition: 96 h
Overview of reported inhibition at 25000 µM across a group of molecules:
All answers are understood in %, so give the number only.

Test Smiles: COc1cc(C(=O)O)ccc1O
Study Target: Neofusicoccum ribis
Quantity Measured: inhibition at 25000 µM
Experimental Value: 50
//
Test Smiles: COc1cccc(OC)c1O
Study Target: Neofusicoccum ribis
Quantity Measured: inhibition at 25000 µM
Experimental Value: 50
//
Test Smiles: O=C(O)c1ccccc1O
Study Target: Neofusicoccum ribis
Quantity Measured: inhibition at 25000 µM
Experimental Value: 50
//
Test Smiles: COc1cccc(OC)c1C(=O)O
Study Target: Neofusicoccum ribis
Quantity Measured: inhibition at 25000 µM
Experimental Value: 50
//
Test Smiles: Oc1ccccc1O
Study Target: Neofusicoccum ribis
Quantity Measured: inhibition at 25000 µM
Experimental Value: 100

Now look at this entry.
(Q) Item O=C(O)c1ccccc1 with Neofusicoccum ribis - inhibition at 25000 µM?
(A) 50

---

- Test system: Botryosphaeria dothidea
- Assay Notes: Decrease in Botryosphaeria dothidea ligninolytic enzyme production assessed as pectinase activity using pectin as substrate at 1 mM measured at 28 degC after 4 days
- Format: functional, organism-based
Calls of active or inactive are those of the source. No cut-off for these calls is given here.
Quantity Measured: inhibition

Test Smiles: O=C(O)c1ccccc1
Study Target: Botryosphaeria dothidea
Quantity Measured: inhibition
Experimental Value: inactive
--
Test Smiles: COc1cccc(OC)c1C(=O)O
Study Target: Botryosphaeria dothidea
Quantity Measured: inhibition
Experimental Value: inactive
--
Test Smiles: COc1cccc(OC)c1O
Study Target: Botryosphaeria dothidea
Quantity Measured: inhibition
Experimental Value: inactive
